Consider the following molecules and their measured melting point readings.

Before answering, review these 5 worked examples.
- MOLECULE: "COc1ccccc1-c1ccc(-c2cc(NC(Cc3ccccc3)C(=O)O)ncn2)cc1 (centres unmarked)"
  melting point: "121 to 123 °C (dec.)"
- MOLECULE: "CC(C)COc1ccc(-c2cc(NC(Cc3ccccc3)C(=O)O)ncn2)cc1 (centres unmarked)"
  melting point: "210 to 213 °C (dec.)"
- MOLECULE: "O=C(O)C(Cc1ccccc1)Nc1cc(-c2ccc(OCc3cccc(O)c3)cc2)ncn1 (centres unmarked)"
  melting point: "190 to 193 °C (dec.)"
- MOLECULE: "O=C(O)C(Cc1ccccc1)Nc1cc(-c2ccc(-c3ccc(Oc4ccccc4)cc3)cc2)ncn1 (centres unmarked)"
  melting point: "120 to 123 °C (dec.)"
- MOLECULE: "O=C(O)[C@H](Cc1ccccc1)Nc1cc(-c2ccc(OCc3ccccc3)nc2)ncn1"
  melting point: "130 to 133 °C"

Entry "O=C(c1ccccc1)c1ccc(-c2cc(N[C@@H](Cc3ccccc3)C(=O)O)ncn2)cc1" , melting point reported as 109 to 111 °C

Given item O=C(c1ccc(Cl)cc1)c1ccc(-c2cc(NC(Cc3ccccc3)C(=O)O)ncn2)cc1 (centres unmarked) , the value recorded as its melting point is 123 to 126 °C

response.value for "O=C(O)[C@H](Cc1ccccc1)Nc1cc(-c2ccc(/C=C\c3ccccc3)cc2)ncn1" (field: melting point) = 217 to 220 °C (dec.)

For record O=C(Nc1ccccc1)c1ccc(-c2cc(NC(Cc3ccccc3)C(=O)O)ncn2)cc1 (centres unmarked) the listed melting point is 228 to 231 °C (dec.)

Record O=C(O)C(Cc1ccccc1)Nc1cc(-c2ccc(OCCc3cccnc3)cc2)ncn1 (centres unmarked) . Reported melting point: 85 to 88 °C

O=C(O)C(Cc1ccccc1)Nc1cc(-c2ccc(OCc3ccccn3)cc2)ncn1 (centres unmarked) has a reported melting point of 120 to 123 °C
